Target: human CB2R (Homo sapiens, UniProt P34972)
Construct: host or cells: CHO cells
Sequence (P34972 whole entry): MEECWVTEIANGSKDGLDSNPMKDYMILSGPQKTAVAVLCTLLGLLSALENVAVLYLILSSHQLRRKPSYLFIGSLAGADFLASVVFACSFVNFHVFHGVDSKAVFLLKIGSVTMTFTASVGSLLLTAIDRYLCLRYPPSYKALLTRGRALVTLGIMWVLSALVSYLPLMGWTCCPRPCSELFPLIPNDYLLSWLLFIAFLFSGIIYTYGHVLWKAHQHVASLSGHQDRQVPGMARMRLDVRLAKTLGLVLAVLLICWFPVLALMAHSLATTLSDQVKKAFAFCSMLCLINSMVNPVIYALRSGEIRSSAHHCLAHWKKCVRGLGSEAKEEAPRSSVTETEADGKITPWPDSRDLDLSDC
Test: CB2R mediated modulation of cAMP synthesis
Assay type: cell-based
Conditions: found through the use of the above described assays
property: agonistic activity

Recorded agonistic activity, per entry:
molecule: CC(C)S(=O)(=O)C(C)(C)C(=O)Nc1nc2c(s1)CCCC2
reading: agonistic activity
--
molecule: CC(C)(C(=O)Nc1ccc(C(F)(F)F)cn1)S(=O)(=O)CC1CCNCC1
reading: agonistic activity
--
molecule: CC(C)CCS(=O)(=O)C(C)(C)C(=O)Nc1ccc(C(F)(F)F)cn1
reading: agonistic activity
--
molecule: CCCS(=O)(=O)C(C)(C)C(=O)Nc1nc(C)c(C(C)(C)C)s1
reading: agonistic activity
--
molecule: CC(C)(C)c1cc(NC(=O)C(C)(C)S(=O)(=O)CCCc2ccccc2)no1
reading: agonistic activity
--
molecule: CC(C)(C)c1cc(NC(=O)C(C)(C)S(=O)(=O)C2CCCCCC2)no1
reading: agonistic activity
--
molecule: CC(C)S(=O)(=O)C(C)(C)C(=O)Nc1nc(-c2ccc(Cl)cc2)cs1
reading: agonistic activity
--
molecule: CC(C)(C)c1cc(NC(=O)C(C)(C)S(=O)(=O)C(C)(C)C)no1
reading: agonistic activity
--
molecule: CCC(C)c1cc(NC(=O)C(C)(C)S(=O)(=O)CC2CCOCC2)on1 (stereo not shown)
reading: agonistic activity

Next molecule, please.
Param item: `CC(C)(C)S(=O)(=O)C(C)(C)C(=O)Nc1cc(C(F)(F)F)ccn1` ; param system: human CB2R (Homo sapiens, UniProt P34972); output agonistic activity: agonistic activity

====

Biological target: human CB2R (Homo sapiens)
Construct: host or cells: CHO cells
Test: CB2R mediated modulation of cAMP synthesis
Type: cell-based
Conditions: found through the use of the above described assays
property: agonistic activity

Example molecules with recorded agonistic activity:
molecule: CC(C)S(=O)(=O)C(C)(C)C(=O)Nc1cccc(C(F)(F)F)n1
property: agonistic activity
reading: agonistic activity

molecule: CC(C)(C)c1csc(NC(=O)C(C)(C)S(=O)(=O)CC2CCOCC2)n1
property: agonistic activity
reading: agonistic activity

molecule: CCCS(=O)(=O)C(C)(C)C(=O)Nc1nc2ccccc2s1
property: agonistic activity
reading: agonistic activity

molecule: CCCS(=O)(=O)C(C)(C)C(=O)Nc1nc(C(F)(F)F)cs1
property: agonistic activity
reading: agonistic activity

Measured agonistic activity of `CC(C)S(=O)(=O)C(C)(C)C(=O)Nc1cccc(C(C)(C)C)c1` : agonistic activity

Entry `Cn1nc(C(C)(C)C)cc1NC(=O)C(C)(C)S(=O)(=O)C1CCCC1` , agonistic activity reported as agonistic activity

// recorded agonistic activity for `CC(C)(C(=O)Nc1nc(-c2ccccn2)cs1)S(=O)(=O)CC1CCOCC1` : agonistic activity

Value of agonistic activity reported for the molecule `CCCS(=O)(=O)C(C)(C)C(=O)Nc1nc2c(s1)CCCC2` is agonistic activity

====

Biological target: human CB2R (Homo sapiens)
Construct: host or cells: CHO cells
Assay: CB2R mediated modulation of cAMP synthesis
Format: cell-based
// thresholds for EC50 classes: bottom end: < 0.003 µM; midrange: ≥ 0.003 µM and < 0.02 µM; top end: ≥ 0.02 µM

Examples from the recorded data:
molecule: CCCS(=O)(=O)C(C)(C)C(=O)Nc1nc(C(C)(C)C)cs1
label: midrange
//
molecule: Cc1sc(NC(=O)C(C)(C)S(=O)(=O)CC2CCOCC2)nc1-c1ccccc1
label: bottom end
//
molecule: CC(C)(C(=O)Nc1nnc(-c2ccccc2)[nH]1)S(=O)(=O)CC1CCOCC1
label: bottom end

Exam item: Form field 'band' for `Cc1nc(NC(=O)C(C)(C)S(=O)(=O)C(C)(C)C)sc1C(C)(C)C`
Marked response: midrange

Exam item: Band for the recorded EC50 of CC(C)(C)c1cc(NC(=O)C(C)(C)S(=O)(=O)CC2CCCO2)no1 (stereo not drawn) ?
Marked response: top end

Exam item: Which bin should I file `CC(C)(C)c1cc(NC(=O)C(C)(C)S(=O)(=O)C2CCCC2)no1` under?
Marked response: bottom end
